Listing: normalized RNA/DNA level without ligand (log10) of selected variants
B1: library; a variant is named by its letters at N, in order (parent)
chain: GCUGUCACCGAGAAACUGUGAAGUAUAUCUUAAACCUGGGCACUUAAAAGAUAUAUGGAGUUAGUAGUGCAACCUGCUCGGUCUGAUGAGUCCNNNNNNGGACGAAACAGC

Variants of: B1
ASSAY REMARKS: normalized RNA/DNA level without ligand (relative to sTRSVctl = 100) (log10 (% of sTRSVctl)); HEK293T; ligand: cyclic di-GMP (c-di-GMP-II aptamer); higher = less ribozyme self-cleavage, higher mRNA level
EXPERIMENTAL PARAMETERS: reporter: mCherry (pCS4076), ligand present: no
READOUT TYPE: normalized RNA/DNA level without ligand (log10)

[
  {
    "MUTATION": "UUCGUA",
    "READING": 1.64
  },
  {
    "MUTATION": "CGGACG",
    "READING": 1.77
  },
  {
    "MUTATION": "AAUGUU",
    "READING": 1.66
  },
  {
    "MUTATION": "ACUCUC",
    "READING": 1.77
  },
  {
    "MUTATION": "CAGGGG",
    "READING": 1.63
  },
  {
    "MUTATION": "UGGGCG",
    "READING": 1.84
  },
  {
    "MUTATION": "UUCUCU",
    "READING": 1.8
  },
  {
    "MUTATION": "UUUUGU",
    "READING": 1.74
  },
  {
    "MUTATION": "CUCUGA",
    "READING": 1.66
  },
  {
    "MUTATION": "AUAGUA",
    "READING": 1.5
  },
  {
    "MUTATION": "GUCUCA",
    "READING": 1.7
  },
  {
    "MUTATION": "UAUAGU",
    "READING": 1.65
  },
  {
    "MUTATION": "GCGCCU",
    "READING": 1.77
  },
  {
    "MUTATION": "CUGAAG",
    "READING": 1.59
  },
  {
    "MUTATION": "UCGGUG",
    "READING": 1.68
  },
  {
    "MUTATION": "UGCGCA",
    "READING": 1.71
  },
  {
    "MUTATION": "GUUUGA",
    "READING": 1.56
  },
  {
    "MUTATION": "UAGUCA",
    "READING": 1.77
  },
  {
    "MUTATION": "CGCGCG",
    "READING": 1.83
  },
  {
    "MUTATION": "GAGCCC",
    "READING": 1.81
  },
  {
    "MUTATION": "UUGUGA",
    "READING": 1.6
  },
  {
    "MUTATION": "GUAGCG",
    "READING": 1.81
  },
  {
    "MUTATION": "AUGAGC",
    "READING": 1.62
  },
  {
    "MUTATION": "AACCAG",
    "READING": 1.6
  }
]

Data origin: the supplement of paper PMC6757056
